Recorded polymerase ribozyme fitness (log ratio) for the following variants
B1: TPR t1 (parent)
chain: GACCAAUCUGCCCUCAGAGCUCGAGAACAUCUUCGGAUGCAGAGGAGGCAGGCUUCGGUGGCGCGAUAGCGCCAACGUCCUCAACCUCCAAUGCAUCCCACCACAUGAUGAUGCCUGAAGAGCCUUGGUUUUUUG

Variants of: B1
Test: polymerase ribozyme fitness, log enrichment relative to wild type (log ratio); higher = more active; in vitro selection for triplet polymerase activity
// print number alone

For the variant GACCAAUCUACCCUCAGAGCUCGAGAACAUCUUCGGAUGCAGAGGAGGAAGGCUUCGGUGGCGCGAUAGCGCCAACGUCCUCAACCUCCAAUUCAUCCCACCACAUGAUGAGGCCUGAAGAGCCUUGGUUUUUUG [G10A C49A G93U U112G] , report polymerase ribozyme fitness (log ratio).
-1.97

For the variant GACCAAUCUGCCCUCAGAGCUCGAGAACAUCUUCGGAUGCAUAGGAGGCAGGCUUCGGUAGCGCGAUAGCGCCAACGUCCUCAACCUCCAAUGCAUCCCACCACAUGAUGAUGCCUGAAGAGCCUUGGUUUUUUG [G42U G60A] , report polymerase ribozyme fitness (log ratio).
-2.16

For the variant GACCAAUCUGCCCUCAGAGCUCGAGACCAUCUUCGGAUGCAGAGGAGACAGGCUUCGGUGGCGCGAUAGCGCCAACGUCCUCAACGUCCAAAGCAUCCCACCGCCUGAGGAUGCCUGAAGAGCCUUGGUUUUUUG [A27C G48A C86G U92A A103G A105C U109G] , report polymerase ribozyme fitness (log ratio).
-7.14

For the variant GACCACUCUGCCCUCAGAGCUCGAGAACAUCUUCGGAUGGAGAGGAGGCAGGCUUGGGUGGCGCGAUAGCGCCAACGUCCUCAACCUCCAAUGCAUCCCACCACAUGAUGAUGCCUGAAGAGCCUUGGUUUUUUG [A6C C40G C56G] , report polymerase ribozyme fitness (log ratio).
-2.36

Turning now to a further record.
For the variant GACCAAUCUGCCCUCAGAGCUCGAGAACAUCUUCGGAUGCAGAUGAGGCAGGCUUCGGUGGCGCGAUAGCGCCAACGUCCUCAACCUCCAAUGCUUCCCACCACAUGAUGAUGCCUCAAGAGCCUUGGUUUUUUG [G44U A95U G117C] , report polymerase ribozyme fitness (log ratio).
-4.64
